Assay: In vivo pharmacokinetic analysis in mice
Set-up: species or system CD-1 mice
Settings: MMAE as potential metabolite in plasma after single IV 2 mg/kg acetate salt of PDC_8, CD-1 mice
Non-standard residues stand in square brackets, D forms with d. Residues, ends and D or L forms follow the SMILES beside them. *: point of attachment. Dolaproine = CO[C@@H]([C@@H]1CCCN1)[C@@H](C)C(=O)O; Dil = CC[C@H](C)[C@H](NC)[C@@H](CC(=O)O)OC; X1 = C[C@@H](N*)[C@@H](O)c1ccccc1; NMeV = CN[C@H](C(=O)O)C(C)C
assay.endpoint: Cmax (µM)
# output: bare number, implied unit µM

Report measured Cmax; entry is CC[C@H](C)[C@@H]([C@@H](CC(=O)N1CCC[C@H]1[C@H](OC)[C@@H](C)C(=O)N[C@H](C)[C@@H](O)c1ccccc1)OC)N(C)C(=O)[C@@H](NC(=O)[C@@H](NC)C(C)C)C(C)C [MMAE, monomethyl auristatin E] (H-[NMeV]V[Dil][Dolaproine]-X1) 0.055

* * *

Assay: Pharmacokinetic analysis in Cynomolgus macaque plasma
Assay type: in vivo, Cynomolgus macaques
Details: MMAE as potential metabolite in plasma after single IV 1 mg/kg acetate salt of PDC_8, Cynomolgus macaques
Non-standard residues stand in square brackets, D forms with d. Residues, ends and D or L forms follow the SMILES beside them. *: point of attachment. Dolaproine = CO[C@@H]([C@@H]1CCCN1)[C@@H](C)C(=O)O; Dil = CC[C@H](C)[C@H](NC)[C@@H](CC(=O)O)OC; X1 = C[C@@H](N*)[C@@H](O)c1ccccc1; NMeV = CN[C@H](C(=O)O)C(C)C
assay.endpoint: Cmax (nM)
Return type: number; implicit unit nM.

Item CC[C@H](C)[C@@H]([C@@H](CC(=O)N1CCC[C@H]1[C@H](OC)[C@@H](C)C(=O)N[C@H](C)[C@@H](O)c1ccccc1)OC)N(C)C(=O)[C@@H](NC(=O)[C@@H](NC)C(C)C)C(C)C [MMAE, monomethyl auristatin E] (H-[NMeV]V[Dil][Dolaproine]-X1) : provide Cmax 5.6

* * *

Test: Pharmacokinetic analysis in rat plasma at different doses (6.2)
Type: in vivo, SD rats
Conditions: MMAE as potential metabolite after single IV 3.75 mg/kg acetate salt of PDC_8, male SD rats
Non-standard residues stand in square brackets, D forms with d. Residues, ends and D or L forms follow the SMILES beside them. *: point of attachment. Dolaproine = CO[C@@H]([C@@H]1CCCN1)[C@@H](C)C(=O)O; Dil = CC[C@H](C)[C@H](NC)[C@@H](CC(=O)O)OC; X1 = C[C@@H](N*)[C@@H](O)c1ccccc1; NMeV = CN[C@H](C(=O)O)C(C)C
assay.endpoint: Cmax

Please give measured Cmax of the following entry: CC[C@H](C)[C@@H]([C@@H](CC(=O)N1CCC[C@H]1[C@H](OC)[C@@H](C)C(=O)N[C@H](C)[C@@H](O)c1ccccc1)OC)N(C)C(=O)[C@@H](NC(=O)[C@@H](NC)C(C)C)C(C)C [MMAE, monomethyl auristatin E] (H-[NMeV]V[Dil][Dolaproine]-X1) 39 nM

* * *

Assay: Pharmacokinetic analysis in rat plasma (6.1, 2 mg/kg)
Assay type: in vivo, SD rats
Conditions: MMAE as potential metabolite in plasma after single IV 2 mg/kg acetate salt of PDC_8, SD rats
Non-standard residues stand in square brackets, D forms with d. Residues, ends and D or L forms follow the SMILES beside them. *: point of attachment. Dolaproine = CO[C@@H]([C@@H]1CCCN1)[C@@H](C)C(=O)O; Dil = CC[C@H](C)[C@H](NC)[C@@H](CC(=O)O)OC; X1 = C[C@@H](N*)[C@@H](O)c1ccccc1; NMeV = CN[C@H](C(=O)O)C(C)C
assay.endpoint: Cmax (µM)
// note: answer is a bare numeric in µM

Look up and state reported Cmax for CC[C@H](C)[C@@H]([C@@H](CC(=O)N1CCC[C@H]1[C@H](OC)[C@@H](C)C(=O)N[C@H](C)[C@@H](O)c1ccccc1)OC)N(C)C(=O)[C@@H](NC(=O)[C@@H](NC)C(C)C)C(C)C [MMAE, monomethyl auristatin E] (H-[NMeV]V[Dil][Dolaproine]-X1) 0.0235

* * *

Assay: Pharmacokinetic analysis in rat plasma at different doses (6.2)
Assay type: in vivo, SD rats
Conditions: MMAE as potential metabolite after single IV 2.5 mg/kg acetate salt of PDC_8, male SD rats
Non-standard residues stand in square brackets, D forms with d. Residues, ends and D or L forms follow the SMILES beside them. *: point of attachment. Dolaproine = CO[C@@H]([C@@H]1CCCN1)[C@@H](C)C(=O)O; Dil = CC[C@H](C)[C@H](NC)[C@@H](CC(=O)O)OC; X1 = C[C@@H](N*)[C@@H](O)c1ccccc1; NMeV = CN[C@H](C(=O)O)C(C)C
assay.endpoint: Cmax (nM)
Write down the numeric answer in nM and omit the unit.

Complete the entry with Cmax for CC[C@H](C)[C@@H]([C@@H](CC(=O)N1CCC[C@H]1[C@H](OC)[C@@H](C)C(=O)N[C@H](C)[C@@H](O)c1ccccc1)OC)N(C)C(=O)[C@@H](NC(=O)[C@@H](NC)C(C)C)C(C)C [MMAE, monomethyl auristatin E] (H-[NMeV]V[Dil][Dolaproine]-X1) 29
